- procedure text: Kinetic solubility
- Type: physicochemical
- condition: PBS buffer, pH 6.8, aqueous buffer, kinetic from dmso stock
quantity measured: solubility at 24 h

Entry O=C1CCCCCCCCOC[C@@H](C(=O)NCc2ccccc2F)NC(=O)[C@H](CC(=O)N2CCC[C@@H]2c2ccccc2)N1 — recorded solubility at 24 h = < 1.4 µg/mL

----------
quantity measured: IC50 (nM)
Write down the numeric answer in nM and omit the unit.

Tested system Mtb20SOG (Mycobacterium tuberculosis); IC50 recorded for O=C1CCc2cccc(c2)OCCCC[C@@H](C(=O)NCc2ccccc2F)NC(=O)[C@H](CC(=O)N2CCC[C@@H]2C2CC2)N1 was 6.5

----------
- procedure text: Kinetic solubility
- Format: physicochemical
- condition: PBS buffer, pH 6.8
quantity measured: solubility at 24 h
Please append the unit to your numeric answer.

Entry O=C1CCCCCCCCOC[C@@H](C(=O)NCc2ccccc2F)NC(=O)[C@H](CC(=O)N2CCC[C@@H]2c2ccccc2)N1 — recorded solubility at 24 h = 1.4 µg/mL

----------
- measured target: UniProtKB P28074
- procedure text: human constitutive proteasome β5c inhibition, suc-LLVY-AMC
- Format: biochemical
- condition: apparent selectivity index, rounded to three or fewer significant figures
quantity measured: SIapp IC50–β5c / IC50–Mtb20S

Entry O=C1CCc2cccc(c2)Oc2ccc(cc2)C[C@@H](C(=O)NCc2ccccc2F)NC(=O)[C@H](CC(=O)N2CCC[C@@H]2c2ccccc2)N1 — recorded SIapp IC50–β5c / IC50–Mtb20S = >13,600

Entry O=C1CCc2cccc(c2)Oc2ccc(cc2)C[C@@H](C(=O)NCc2ccccc2F)NC(=O)[C@H](CC(=O)N2CCCC2)N1 — recorded SIapp IC50–β5c / IC50–Mtb20S = >500

Entry O=C1CCc2cccc(c2)OCCCC[C@@H](C(=O)NCc2ccccc2F)NC(=O)[C@H](CC(=O)N2CCC[C@@H]2c2ccccc2)N1 — recorded SIapp IC50–β5c / IC50–Mtb20S = >14,400

Entry O=C1CCCCCCCCCC[C@@H](C(=O)NCc2cccc3ccccc23)NC(=O)[C@H](CC(=O)N2CCCC2)N1 — recorded SIapp IC50–β5c / IC50–Mtb20S = >674

Entry O=C1CCCCCCCCC[C@@H](C(=O)NCc2cccc3ccccc23)NC(=O)[C@H](CC(=O)N2CCCC2)N1 — recorded SIapp IC50–β5c / IC50–Mtb20S = >141

Entry O=C1CCCCCCCCOC[C@@H](C(=O)NCc2cccc3ccccc23)NC(=O)[C@H](CC(=O)N2CCCC2)N1 — recorded SIapp IC50–β5c / IC50–Mtb20S = >984

Entry O=C1CCCCCCCCOC[C@@H](C(=O)NCc2ccccc2F)NC(=O)[C@H](CC(=O)N2CCC[C@@H]2c2ccccc2)N1 — recorded SIapp IC50–β5c / IC50–Mtb20S = >14,000

----------
So I've got a bunch of compounds here, and I need their SIapp IC50–β5i / IC50–Mtb20S values.
- measured target: UniProt P28062
- Assay type: biochemical

Entry O=C1CCc2cccc(c2)OCCCC[C@@H](C(=O)NCc2ccccc2F)NC(=O)[C@H](CC(=O)N2CCC[C@@H]2c2ccccc2)N1 — recorded SIapp IC50–β5i / IC50–Mtb20S = >14,400

Entry O=C1CCc2cccc(c2)Oc2ccc(cc2)C[C@@H](C(=O)NCc2ccccc2F)NC(=O)[C@H](CC(=O)N2CCC[C@@H]2c2ccccc2)N1 — recorded SIapp IC50–β5i / IC50–Mtb20S = >13,600

Entry O=C1CCCCCCCCC[C@@H](C(=O)NCc2cccc3ccccc23)NC(=O)[C@H](CC(=O)N2CCCC2)N1 — recorded SIapp IC50–β5i / IC50–Mtb20S = >141

Entry O=C1CCCCCCCCOC[C@@H](C(=O)NCc2cccc3ccccc23)NC(=O)[C@H](CC(=O)N2CCCC2)N1 — recorded SIapp IC50–β5i / IC50–Mtb20S = >984

Entry O=C1CCCCCCCCCC[C@@H](C(=O)NCc2cccc3ccccc23)NC(=O)[C@H](CC(=O)N2CCCC2)N1 — recorded SIapp IC50–β5i / IC50–Mtb20S = >674

Entry O=C1CCCCCCCCOC[C@@H](C(=O)NCc2ccccc2F)NC(=O)[C@H](CC(=O)N2CCC[C@@H]2c2ccccc2)N1 — recorded SIapp IC50–β5i / IC50–Mtb20S = >14,000
